- systemName: Vitamin D3 receptor (Sus scrofa)
- Sequence (whole entry): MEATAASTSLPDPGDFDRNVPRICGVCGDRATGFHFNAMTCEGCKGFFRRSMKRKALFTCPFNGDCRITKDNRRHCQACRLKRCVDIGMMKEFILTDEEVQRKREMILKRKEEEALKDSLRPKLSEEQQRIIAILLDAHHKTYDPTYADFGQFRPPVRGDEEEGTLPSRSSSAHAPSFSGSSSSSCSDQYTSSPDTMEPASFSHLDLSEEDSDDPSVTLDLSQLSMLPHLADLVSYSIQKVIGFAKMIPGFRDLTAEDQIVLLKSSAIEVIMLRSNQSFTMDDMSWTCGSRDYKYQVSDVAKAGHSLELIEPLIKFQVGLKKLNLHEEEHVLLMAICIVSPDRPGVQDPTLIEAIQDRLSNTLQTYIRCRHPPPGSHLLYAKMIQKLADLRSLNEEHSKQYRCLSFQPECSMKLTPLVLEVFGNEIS
- protocolDetails: Displacement of [3H]1-alpha,25-(OH)2D3 from VDR in pig intestinal mucosa at EC50 relative to 1-alpha,25-(OH)2D3
- Type: tissue-based
Assignment: determine reported Activity for the given compounds.
Respond numerically; units are % and should not be typed.

Q: If you can, please state the reported Activity value of C[C@H](CCCC(C)(C)O)[C@H]1CC[C@H]2/C(=C/C=C3/C[C@@H](O)[C@@H]4O[C@@H]4C3)CCC[C@]12C .
Ans: 0.4

Q: Fill in: Activity of C[C@H](CCCC(C)(C)O)[C@H]1CC[C@H]2/C(=C/C=C3/C[C@@H](O)[C@H](O)[C@@H](O)C3)CCC[C@]12C is ___
Ans: 0.4

Q: Name the reported Activity value associated with the compound C[C@H](CCCC(C)(C)O)[C@H]1CC[C@H]2/C(=C/C=C3\C[C@@H](O)[C@@H]4O[C@@H]4C3)CCC[C@]12C
Ans: 25

Q: Record request: Activity value, item C[C@H](CCCC(C)(C)O)[C@H]1CC[C@H]2/C(=C/C=C3\C[C@@H](O)[C@H](O)[C@@H](O)C3)CCC[C@]12C
Ans: 5

---

- Test system: MCF7
- protocolDetails: Antiproliferative activity against human MCF7 cells at EC50 after 72 hrs by [3H]thymidine incorporation assay relative to 1-alpha,25-(OH)2D3
- Type: functional
valueKind: Activity (%)
Hi! Could you send only the number? It should be in %, unit omitted.

Q: What value of Activity has been reported for the following molecule? [H][C@@]12CC[C@]([H])([C@H](C)CCCC(C)(C)O)[C@@]1(C)CCC/C2=C\C=C1\C[C@@H](O)[C@H](O)[C@H](O)C1 (stereo partly drawn)
Ans: 20

Q: Using the record for C[C@H](CCCC(C)(C)O)[C@H]1CC[C@H]2/C(=C/C=C3\C[C@@H](O)[C@@H]4O[C@@H]4C3)CCC[C@]12C , report its Activity.
Ans: 16

Q: // returns reported Activity for input C[C@H](CCCC(C)(C)O)[C@H]1CC[C@H]2/C(=C/C=C3C[C@@H](O)C(O)[C@H](O)C3)CCC[C@]12C (stereo partly drawn)
Ans: 5

---

Record form. Attribute: Activity. Fill in for each entry.
- Test system: MCF7
- protocolDetails: Antiproliferative activity against human MCF7 cells at EC50 after 72 hrs by [3H]thymidine incorporation assay relative to 1-alpha,25-(OH)2D3
- Format: functional
Value expressed in %; do not type the unit.

Q: Field: Activity (MCF7). Entry: C[C@H](CCCC(C)(C)O)[C@H]1CC[C@H]2/C(=C/C=C3/C[C@@H](O)[C@@H]4O[C@@H]4C3)CCC[C@]12C
Ans: 1

Q: Item: C[C@H](CCCC(C)(C)O)[C@H]1CC[C@H]2/C(=C/C=C3\C[C@@H](O)[C@H](O)[C@@H](O)C3)CCC[C@]12C Test system: MCF7 Read-out: Activity Value: ?
Ans: 5

Q: Look up Activity with MCF7 for this compound: C[C@H](CCCC(C)(C)O)[C@H]1CC[C@H]2/C(=C/C=C3/C[C@@H](O)[C@H](O)[C@@H](O)C3)CCC[C@]12C
Ans: 5

Data origin, for the record: ChEMBL document CHEMBL1154266
